Target: E6 WT/E6AP (Human papillomavirus type 16)
Test: biochemical
Format: binding
Details: at 24 h; 2 μM E6 WT pre-incubated with compound
pIC50: −log10 of the molar value.

{"COMPOUND": "C=CC(=O)N1CCCN(C(=O)CN2CCc3sccc3C2c2ccccc2C)CC1 (stereo not shown)", "pIC50": 4.20}
{"COMPOUND": "C=CC(=O)N1CCN(c2nc(-c3ccccc3)nc3sc4c(c23)CCCC4)CC1", "pIC50": 4.83}
{"COMPOUND": "C=CC(=O)N1CCN(c2nc(CCc3ccccc3OC)nc3sc4c(c23)CCCC4)CC1", "pIC50": 5.70}
{"COMPOUND": "COc1cccc(CCc2nc(N3CCN(C(=O)/C=C/CN(C)C)CC3)c3c4c(sc3n2)CCCC4)c1", "pIC50": 5.48}

* * *

% Inhibition @ 100 μM E6C51S/E6AP values, listed per item
Molecular target: E6C51S/E6AP (Human papillomavirus type 16, UniProt P03126, C58S)
Sequence (P03126 whole entry C58S, looked up): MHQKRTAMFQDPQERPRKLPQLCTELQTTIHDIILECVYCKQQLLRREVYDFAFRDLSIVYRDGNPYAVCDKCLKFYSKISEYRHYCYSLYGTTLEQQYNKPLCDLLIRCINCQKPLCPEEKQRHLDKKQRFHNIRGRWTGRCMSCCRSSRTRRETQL
Test: E6/E6AP binding assay (amylose-bound MBP-16E6, E6AP-BAP activity), C51S 16E6
Parameters: species or system HPV-16
Conditions: 100 μM compound
OBSERVED PROPERTY: % Inhibition @ 100 μM E6C51S/E6AP (%)

{"COMPOUND": "Cc1ccccc1C1c2ccsc2CCN1CC(=O)N1CCCN(C(=O)CCl)CC1 (centres unmarked) [EIN-116]", "NUMBER": 36}
{"COMPOUND": "O=C(CCl)N1CCCN(C(=O)CN2CCc3sccc3C2c2cccc(F)c2)CC1 (centres unmarked) [EIN-119]", "NUMBER": 34}
{"COMPOUND": "O=C(CCl)N1CCN(c2nc(CCc3ccccc3)nc3sc4c(c23)CCCC4)CC1 [EIN-125]", "NUMBER": 62}
{"COMPOUND": "Cc1sc2nc(C3CC3)nc(N3CCN(C(=O)CCl)CC3)c2c1C [EIN-129]", "NUMBER": 103}
{"COMPOUND": "O=C(CCl)N1CCN(c2nc(Cc3ccccc3)nc3sc4c(c23)CCCC4)CC1 [EIN-127]", "NUMBER": 79}
{"COMPOUND": "C=CC(=O)N1CCN(c2nc(N(C)Cc3cccc(F)c3)nc3sc4c(c23)CCCC4)CC1 [EIN-141]", "NUMBER": 0}
{"COMPOUND": "C=CC(=O)N1CCN(c2nc(CCc3cccc(F)c3)nc3sc4c(c23)CCCC4)CC1 [EIN-137]", "NUMBER": 16}
{"COMPOUND": "C=CC(=O)N1CCN(c2nc(CCc3ccccc3)nc3sc4c(c23)CCCC4)CC1 [EIN-132]", "NUMBER": 19}

* * *

Recorded Emax, one value per entry.
Molecular target: E6 WT/E6AP (Human papillomavirus type 16, UniProt P03126)
Sequence (P03126 8-158): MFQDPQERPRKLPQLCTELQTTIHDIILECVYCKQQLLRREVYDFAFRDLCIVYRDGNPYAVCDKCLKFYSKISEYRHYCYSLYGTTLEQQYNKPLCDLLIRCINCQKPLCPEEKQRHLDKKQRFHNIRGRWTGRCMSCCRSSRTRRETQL
Experiment: biochemical
Type: binding
Settings: 24 h, read-out: FP maximal inhibition (max %) E6 WT/E6AP

{"MOLECULE": "C=CC(=O)N1CCN(c2nc(N(C)Cc3ccccc3)nc3sc4c(c23)CCCC4)CC1 [EIN-139]", "SUBJECT OF TEST": "E6 WT/E6AP (Human papillomavirus type 16, UniProt P03126)", "Emax (%)": 8}
{"MOLECULE": "C=CC(=O)N1CCN(c2nc(CCc3ccccc3OC)nc3sc4c(c23)CCCC4)CC1 [EIN-145]", "SUBJECT OF TEST": "E6 WT/E6AP (Human papillomavirus type 16, UniProt P03126)", "Emax (%)": 59}
{"MOLECULE": "C=CC(=O)N1CCN(c2nc(CCc3cccc(OC)c3)nc3sccc23)CC1 [EIN-152]", "SUBJECT OF TEST": "E6 WT/E6AP (Human papillomavirus type 16, UniProt P03126)", "Emax (%)": 98}
{"MOLECULE": "C=CC(=O)N1CCN(c2nc(NCc3ccccc3)nc3sc4c(c23)CCCC4)CC1 [EIN-134]", "SUBJECT OF TEST": "E6 WT/E6AP (Human papillomavirus type 16, UniProt P03126)", "Emax (%)": 11}
{"MOLECULE": "C=CC(=O)N1CCN(c2nc(-c3ccccc3OC)nc3ccccc23)CC1 [EIN-160]", "SUBJECT OF TEST": "E6 WT/E6AP (Human papillomavirus type 16, UniProt P03126)", "Emax (%)": 100}
{"MOLECULE": "C=CC(=O)N1CCN(c2nc(-c3ccc(OC4CC4)cc3)nc3ccccc23)CC1 [EIN-163]", "SUBJECT OF TEST": "E6 WT/E6AP (Human papillomavirus type 16, UniProt P03126)", "Emax (%)": 100}
{"MOLECULE": "C=CC(=O)N1CCN(c2nc(Cc3ccccc3)nc3sc4c(c23)CCCC4)CC1 [EIN-135]", "SUBJECT OF TEST": "E6 WT/E6AP (Human papillomavirus type 16, UniProt P03126)", "Emax (%)": 27}
{"MOLECULE": "C=CC(=O)N1CCN(c2nc(-c3ccc(OC)cc3)nc3cccnc23)CC1 [EIN-165]", "SUBJECT OF TEST": "E6 WT/E6AP (Human papillomavirus type 16, UniProt P03126)", "Emax (%)": 100}
{"MOLECULE": "C=CC(=O)N1CCN(C(=O)CN2CCc3ccccc3C2c2ccccc2C)CC1 (stereo not drawn) [EIN-166]", "SUBJECT OF TEST": "E6 WT/E6AP (Human papillomavirus type 16, UniProt P03126)", "Emax (%)": 100}

Origin of measurements: patent US12533339B2
